Entry source: PubChem BioAssay (NCI)

Test system: HCT-116 colon
Test: NCI-60 one-dose screen, 48 h (100 = growth as untreated, 0 = no growth, -100 = all killed)
Details: 10 µM
Experimental: Growth inhibition of the HCT-116 human tumor cell line is measured as a screen for anti-cancer activity. Cells are grown in 96 well plates and exposed to the test compound for 48 hours. Compounds are tested at a single concentration, which is 10^-5 M for most compounds. The reported endpoint is percent growth (GI% or GIPRCNT), where numbers from 0 - 100% represent growth inhibition, and numbers from -100% - 0 represent cell death. For example, a value of 40 represents 60% growth inhibition. […]
Compounds without any hit were thinned out: in the full panel of roughly 83,000, 20% have a hit.
Readout Label: growth (%)
Dear colleague, please return just the value in %, with no unit written.

Input: I'd like to know its growth. The molecule in question is CCN(CC)CCCC(C)Nc1nc(-c2ccc(OC)cc2)nc2cc(Cl)ccc12 (stereo not drawn)
Output: 47.1

Input: I'd like to know its growth. The molecule in question is COC(=O)[C@@H]1[C@H](O)[C@H](C)[C@H](O)[C@@](C)(O)/C=C\C=C(C)C(=O)Nc2c(C)c(OC(C)=O)c3c(c2O)C(=O)C(C)=C2OCOC(=C23)C(C)=C[C@@](C)(O)[C@H](O)[C@@H](C)[C@H]1OC(C)=O
Output: 114

Input: I'd like to know its growth. The molecule in question is COc1ccc(Nc2nc3ccc(NC(=O)NC4CCCCC4)cc3[nH]c2=O)cc1
Output: 102

Input: I'd like to know its growth. The molecule in question is COc1ccc(C2=Nc3c(C)nn(-c4ccccc4)c3NC(c3ccc(Oc4ccnc5cc(Cl)ccc45)c(OC)c3)C2)cc1 (stereo not drawn)
Output: 45.6

Input: I'd like to know its growth. The molecule in question is O=[N+]([O-])c1ccc(Oc2cc(Cl)c(Cl)cc2Cl)c(C(F)(F)F)c1
Output: 102

Input: I'd like to know its growth. The molecule in question is O=C1/C(=C\c2ccc(Br)cc2)CN(C(=O)c2ccccc2F)C/C1=C\c1ccc(Br)cc1
Output: -76.1

Input: I'd like to know its growth. The molecule in question is OCC1OC(n2cnc3c(N/N=C\c4ccccn4)ncnc32)C(O)C1O (stereo not drawn)
Output: 11.9

Input: I'd like to know its growth. The molecule in question is COc1ccc(-c2cc(-c3cccc(NS(C)(=O)=O)c3)nc(N)c2C#N)cc1
Output: 17
